Assay Text: Adsorption of aromatic substances on CTS crystalline anhydrate (Example C-3)
Format: physicochemical
Study Conditions: aromatic substance adsorbed per 1 g of CTS crystalline anhydrate
Value Type: Amount of Adsorbed Substance

{"columns": ["Compound", "Value Type", "Measured"],
 "data": [
  ["CC1=CCC(O)(C(C)C)CC1 (centres unmarked)", "Amount of Adsorbed Substance", "0.34 g"],
  ["CCCCCC(=O)O", "Amount of Adsorbed Substance", "0.47 g"],
  ["CC(C)=CCCC(C)CC=O (centres unmarked)", "Amount of Adsorbed Substance", "0.46 g"],
  ["C=CC(C)(O)CCC=C(C)C (centres unmarked)", "Amount of Adsorbed Substance", "0.42 g"],
  ["CC(C)=CCC/C(C)=C/CO", "Amount of Adsorbed Substance", "0.32 g"],
  ["CCO", "Amount of Adsorbed Substance", "0.50 g"],
  ["OCCCc1ccccc1", "Amount of Adsorbed Substance", "0.52 g"],
  ["CCCCCO", "Amount of Adsorbed Substance", "0.31 g"],
  ["CC1=CC=C(C(C)C)CC1", "Amount of Adsorbed Substance", "0.37 g"],
  ["CCCCC(=O)O", "Amount of Adsorbed Substance", "0.47 g"],
  ["CC(C)C(=O)O", "Amount of Adsorbed Substance", "0.51 g"],
  ["CCC(=O)O", "Amount of Adsorbed Substance", "0.50 g"],
  ["C=C1CCC2CC1C2(C)C (centres unmarked)", "Amount of Adsorbed Substance", "0.30 g"],
  ["OCCc1ccccc1", "Amount of Adsorbed Substance", "0.40 g"],
  ["ClCc1ccccc1 [Benzyl Chloride]", "Amount of Adsorbed Substance", "0.32 g"],
  ["OCc1ccccc1", "Amount of Adsorbed Substance", "0.43 g"],
  ["CC(=O)CC(C)(C)O", "Amount of Adsorbed Substance", "0.28 g"],
  ["CC(C)CO", "Amount of Adsorbed Substance", "0.36 g"],
  ["C=CCN=C=S [Allylisothiocyanate]", "Amount of Adsorbed Substance", "0.37 g"],
  ["CC1=CCC(C(C)(C)O)CC1 (centres unmarked)", "Amount of Adsorbed Substance", "0.33 g"],
  ["CC(=O)O", "Amount of Adsorbed Substance", "0.47 g"],
  ["c1ccccc1", "Amount of Adsorbed Substance", "0.14 g"],
  ["CCCC(=O)O", "Amount of Adsorbed Substance", "0.55 g"],
  ["CC(C)c1cccc(=O)c(O)c1", "Amount of Adsorbed Substance", "0.29 g"],
  ["CC(C)(C)N=C=S [t-Butylisothiocyanate]", "Amount of Adsorbed Substance", "0.36 g"],
  ["CCCCCCO", "Amount of Adsorbed Substance", "0.41 g"],
  ["CCCCCOC(C)=O [Pentylacetate]", "Amount of Adsorbed Substance", "0.46 g"],
  ["COc1ccccc1O", "Amount of Adsorbed Substance", "0.42 g"],
  ["C=C(C)[C@H]1CC=C(C)CC1", "Amount of Adsorbed Substance", "0.42 g"]
]}

----------
Assay Text: Adsorption of aromatic substances on CTS crystalline anhydrate (Example C-3)
Format: physicochemical
Decision: Amount of Adsorbed Substance compared against 0.3 g; not below it gives satisfied, below it gives not satisfied.

{"columns": ["Molecule", "Class"],
 "data": [
  ["OCCCCO [1,4-Butanediol]", "not satisfied"],
  ["O=CO [Formic Acid]", "not satisfied"],
  ["Cc1ccccc1 [Toluene]", "not satisfied"],
  ["CC(C)(C)O [2-Methyl-2-Propanol]", "satisfied"],
  ["ClC(Cl)Cl [Chloroform]", "satisfied"],
  ["CO [Methanol]", "satisfied"],
  ["CCOCC [Diethyl Ether]", "not satisfied"]
]}

----------
Assay Text: Adsorption of aromatic substances on CTS crystalline anhydrate (Example C-3)
Type: physicochemical
Study Conditions: aromatic substance adsorbed per 1 g of CTS crystalline anhydrate
Description: The following explains the experimental method in detail. […] The amount of the adsorbed aromatic substances was calculated by measuring the weight of the resulting powders and subtracting their starting powder weight (4 g).
Simple rule here: Amount of Adsorbed Substance less than 0.4 g is yes, otherwise no.

{"columns": ["Compound", "Class"],
 "data": [
  ["NCCO", "yes"],
  ["CC(C)O", "no"],
  ["CC1=CCC2CC1C2(C)C (stereo not drawn)", "yes"],
  ["CCCCCCCCO", "yes"],
  ["CCCCCCCC(=O)O", "no"]
]}
